Catalogue of Inhibition values
# System: Plasmodium falciparum
# PROCEDURE SUMMARY: GSK_TCMDC: Inhibition of Plasmodium falciparum Dd2 in whole red blood cells, using parasite LDH activity as an index of growth. Test compounds present at 2uM
# Type: functional
API: value field is a number in %; no unit string.

Consider the worked cases shown below.
COMPOUND: CC(CCCC(=O)Nc1ccc(CC(C)NCCc2cccc(Cl)c2)cc1)NCCc1cccc(Cl)c1 (stereo not drawn)
UNIT DESCRIPTOR: %
Inhibition: 14
//
COMPOUND: COc1ccc(NC(=O)c2ccc(-c3nc(-c4ccc(Cl)cc4)cs3)cc2)cc1N1CCN(C)CC1
UNIT DESCRIPTOR: %
Inhibition: 34
//
COMPOUND: Cn1cncc1-c1ccc2ncnc(Nc3ccc4c(cnn4Cc4ccccc4)c3)c2c1
UNIT DESCRIPTOR: %
Inhibition: 99
//
COMPOUND: CCN(CC)CCCC(C)Nc1c(-c2ccc(C)cc2)cnc2ccccc12 (stereo not drawn)
UNIT DESCRIPTOR: %
Inhibition: 65
//
COMPOUND: O=C(CSc1ccccn1)Nc1c(F)cccc1F
UNIT DESCRIPTOR: %
Inhibition: 0

Give the reported value of Inhibition for this record: Cc1cccc(-c2nn(-c3ccccc3)cc2C(=O)Nc2nnc(C)o2)c1
63

Give the reported value of Inhibition for this record: NC1=NC(c2ccccc2)(c2ccccc2)C(=O)N1Cc1ccc(-c2cccnc2)cc1.O=CO
94

Give the reported value of Inhibition for this record: O=C(/C=C/c1ccc(Cl)c(Cl)c1)NCCCCCN1CCCC(CNC(=O)/C=C/c2ccccc2)C1 (stereo not drawn)
6

Give the reported value of Inhibition for this record: Br.CCCC1N=C(N)N=C(N)N1c1ccc(CC)cc1 (stereo not drawn)
4

Give the reported value of Inhibition for this record: COc1ccc(C[C@H](N)C(=O)N[C@H]2[C@@H](O)[C@H](n3cnc4c(N(C)C)ncnc43)O[C@@H]2CO)cc1.Cl
91

Give the reported value of Inhibition for this record: COc1ccc(-c2ccc(NC(=O)c3cccc(Cl)c3)cc2)cc1CN1CCCC1.O=C(O)C(F)(F)F
84

* * *

# System: Plasmodium falciparum
# PROCEDURE SUMMARY: GSK_TCMDC: Inhibition of Plasmodium falciparum 3D7 in whole red blood cells, using parasite LDH activity as an index of growth. Test compounds present at 2uM
# Assay type: functional
Catalogue of Inhibition values
API: value field is a number in %; no unit string.

MOLECULE: CC(C)c1cccc(C(C)C)c1NC(=O)NNC(=O)c1ccc(CCN2CCC(c3nc(COCC(F)(F)F)c(-c4ccc(F)cc4)o3)CC2)cc1
TARGET UNDER TEST: Plasmodium falciparum
Inhibition / %: 88
//
MOLECULE: Cc1nnc2c(NC(=O)NC3CCCC3)cc3cc(-c4ccc(CN(C)C)cc4)ccc3n12
TARGET UNDER TEST: Plasmodium falciparum
Inhibition / %: 100
//
MOLECULE: O=C(Nc1ccc2oc(-c3ccc(Br)cc3)nc2c1)c1ccc([N+](=O)[O-])o1
TARGET UNDER TEST: Plasmodium falciparum
Inhibition / %: 92
//
MOLECULE: O=S(=O)(Nc1ccc(CCN2CCCCC2CCN2CCCC2)cc1)c1ccc(-c2ccccc2)cc1 (stereo unspecified)
TARGET UNDER TEST: Plasmodium falciparum
Inhibition / %: 98
//
MOLECULE: O=C(O)C(F)(F)F.Oc1ccc(CCCNc2nc(NCc3cccc4ccccc34)nc(NC3CCNCC3)n2)cc1
TARGET UNDER TEST: Plasmodium falciparum
Inhibition / %: 91
//
MOLECULE: Cc1ccc(C(=O)Nc2ccc(F)cc2)cc1-c1nc(NC2CC(C)(C)NC(C)(C)C2)nc2c1ccc(=O)n2-c1c(F)cccc1F
TARGET UNDER TEST: Plasmodium falciparum
Inhibition / %: 89
//
MOLECULE: COCCNCc1ncsc1-c1ccc2c(Nc3cc(O)c(Cl)cc3F)ccnc2c1
TARGET UNDER TEST: Plasmodium falciparum
Inhibition / %: 100
//
MOLECULE: CCCCCCCN(Cc1ccc(OC(C)(C)C(=O)OCC)cc1)C(=O)Cc1ccc(F)cc1F
TARGET UNDER TEST: Plasmodium falciparum
Inhibition / %: 93

Next, consider the following molecule.
Give the reported value of Inhibition for this record: COc1nc(NCC(C)C)nc(Oc2ccc(=O)n(Cc3ccccc3)n2)n1
97
